Molecular target: HGFA (Homo sapiens)
Construct: His6 tag (N); seven amino acid spacer and seven amino acid TEV cleavage site (N); Honey Bee melittin signal peptide (N); virus raised in Sf9)
Sequence (Q04756 373-655): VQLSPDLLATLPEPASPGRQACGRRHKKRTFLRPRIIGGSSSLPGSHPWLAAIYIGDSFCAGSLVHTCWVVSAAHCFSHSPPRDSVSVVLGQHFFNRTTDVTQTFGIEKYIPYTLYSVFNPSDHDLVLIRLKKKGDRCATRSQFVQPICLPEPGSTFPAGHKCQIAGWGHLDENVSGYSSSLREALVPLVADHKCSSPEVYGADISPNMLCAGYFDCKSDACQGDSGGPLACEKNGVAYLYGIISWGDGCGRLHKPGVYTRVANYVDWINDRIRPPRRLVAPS
Assay: Chromogenic kinetic enzyme inhibitor assay of HGFA
Conditions: Table 4.1; chromogenic substrate Pefachrome FVIIa
Quick reference for log10(IC50) among some molecules
metric: log10(IC50) (log10 of the value in nM)

[[record]]
molecule = "CC(=O)N[C@@H](CC(C)C)C(=O)N[C@@H](CC(C)C)C(=O)N[C@@H](CCCNC(=N)N)C(=O)c1nccs1"
target_or_system = "HGFA (Homo sapiens)"
value_observed = 3.17

[[record]]
molecule = "CC(=O)N[C@@H](CCCNC(=N)N)C(=O)N[C@@H](CCCCN)C(=O)N[C@@H](CC(C)C)C(=O)N[C@@H](CCCNC(=N)N)C(=O)c1nccs1 [Compound 6h, Ac-RKLR(SEQ ID NO: 18)-kt]"
target_or_system = "HGFA (Homo sapiens)"
value_observed = 2.57

[[record]]
molecule = "CC(C)C[C@H](NC(=O)[C@H](CCC(N)=O)NC(=O)[C@@H](N)CCCCN)C(=O)N[C@H](CCCNC(=N)N)C(=O)c1nccs1"
target_or_system = "HGFA (Homo sapiens)"
value_observed = 4.05

[[record]]
molecule = "CC(=O)N[C@@H](Cc1c[nH]c2ccccc12)C(=O)N[C@@H](CCC(N)=O)C(=O)N[C@@H](CC(C)C)C(=O)N[C@@H](CCCNC(=N)N)C(=O)c1nccs1 [Compound 5b, Ac-WQLR(SEQ ID NO: 3)-kt]"
target_or_system = "HGFA (Homo sapiens)"
value_observed = 2.67

[[record]]
molecule = "CC(=O)N[C@@H](CCCCN)C(=O)N[C@@H](CCC(N)=O)C(=O)N[C@@H](Cc1ccccc1)C(=O)N[C@@H](CCCNC(=N)N)C(=O)c1nccs1 [Compound 5c, Ac-KQFR(SEQ ID NO: 4)-kt]"
target_or_system = "HGFA (Homo sapiens)"
value_observed = 2.67

[[record]]
molecule = "CC(=O)N[C@@H](CO)C(=O)N[C@@H](Cc1c[nH]c2ccccc12)C(=O)N[C@@H](CC(C)C)C(=O)N[C@@H](CCCNC(=N)N)C(=O)c1nccs1 [Compound 6g, Ac-SWLR(SEQ ID NO: 17)-kt]"
target_or_system = "HGFA (Homo sapiens)"
value_observed = 2.64


###

Biological target: HGFA (Homo sapiens, UniProt Q04756)
Construct: His6 tag (N); seven amino acid spacer and seven amino acid TEV cleavage site (N); Honey Bee melittin signal peptide (N); made in house; host or cells: High 5 insect cells (baculovirus; virus raised in Sf9)
Sequence (Q04756 373-655): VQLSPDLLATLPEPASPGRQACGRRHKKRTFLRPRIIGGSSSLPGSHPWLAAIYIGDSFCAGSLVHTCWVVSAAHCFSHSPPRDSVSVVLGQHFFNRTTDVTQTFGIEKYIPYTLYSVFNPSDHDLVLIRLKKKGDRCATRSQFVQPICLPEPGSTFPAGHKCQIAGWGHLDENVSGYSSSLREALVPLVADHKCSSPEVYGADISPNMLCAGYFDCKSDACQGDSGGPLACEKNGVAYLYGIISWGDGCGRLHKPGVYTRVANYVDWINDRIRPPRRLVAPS
Experiment: Fluorescent kinetic enzyme inhibitor assay of HGFA
Assay type: biochemical
Conditions: Table 6.1; Fluorogenic Assay; read-out: HGFA Ki
Text: Using primers identified as SEQ ID NO 1, SEQ ID NO 2, and standard PCR protocols, the nucleotide sequence encoding amino acids 373-655 of HGFA was synthesized. This PCR product was cloned into the SfoI-HindIII sites of a modified pFastBac HT baculovirus expression vector (Addgene, Cambridge, Mass.). […] Protein was quantitated using a modified Lowry protein assay (#500-0006, Bio-Rad Laboratories, Hercules, Calif.). […]
pKi: −log10 of the molar value. Starred links: 1 amine or outer side, 2 acyl side, 3 side chain; linkers in the order of their positions; H or OH if unused. Non-standard residues stand in square brackets, D forms with d. Residues, ends and D or L forms follow the SMILES beside them. X1 = N=C(N)NCCC[C@H](N[*:1])C(=O)c1nc2ccc(C(=O)[*:2])cc2s1
metric: pKi

[[record]]
compound = "CC(=O)N[C@@H](CO)C(=O)N[C@@H](CCCCN)C(=O)N[C@@H](CC(C)C)C(=O)N[C@@H](CCCNC(=N)N)C(=O)c1nc2ccc(C(=O)N[C@@H](Cc3c[nH]c4ccccc34)C(N)=O)cc2s1 [Compound 7124, Ac-SKLR(SEQ ID NO: 10)-Kbt-Trp— NH2] (Ac-SKL[X1]W-NH2)"
target_or_system = "HGFA (Homo sapiens, UniProt Q04756)"
value_observed = 7.80

[[record]]
compound = "CC(=O)N[C@@H](CCCCN)C(=O)N[C@@H](CCCNC(=N)N)C(=O)N[C@@H](CC(C)C)C(=O)N[C@@H](CCCNC(=N)N)C(=O)c1nc2ccc(C(=O)NCc3cccc(C(=O)O)c3)cc2s1 [Compound 7165, Ac-KRLR(SEQ ID NO: 8)-Kbt-5-COOH]"
target_or_system = "HGFA (Homo sapiens, UniProt Q04756)"
value_observed = 8.22

[[record]]
compound = "CC(C)C[C@H](NC(=O)[C@@H](N)Cc1c[nH]c2ccccc12)C(=O)N[C@@H](CCCNC(=N)N)C(=O)c1nc2ccccc2s1"
target_or_system = "HGFA (Homo sapiens, UniProt Q04756)"
value_observed = 6.98

[[record]]
compound = "COC(=O)c1ccc(CNC(=O)c2ccc3nc(C(=O)[C@H](CCCNC(=N)N)NC(=O)[C@H](CC(C)C)NC(=O)[C@H](CCCNC(=N)N)NC(=O)[C@H](CCCCN)NC(C)=O)sc3c2)cc1 [Compound 7158, Ac-KRLR(SEQ ID NO: 8)-kbt-Benzyl-4-COOMe]"
target_or_system = "HGFA (Homo sapiens, UniProt Q04756)"
value_observed = 8.23


###

molecular target: matriptase (Homo sapiens); construct: Charles Craik, UCSF (obtained from another laboratory); assay: Fluorescent kinetic enzyme inhibitor assay of matriptase; type: biochemical; details: Table 9.2; Fluorogenic Assay
Sequence (Q9Y5Y6 615-855 limits assumed): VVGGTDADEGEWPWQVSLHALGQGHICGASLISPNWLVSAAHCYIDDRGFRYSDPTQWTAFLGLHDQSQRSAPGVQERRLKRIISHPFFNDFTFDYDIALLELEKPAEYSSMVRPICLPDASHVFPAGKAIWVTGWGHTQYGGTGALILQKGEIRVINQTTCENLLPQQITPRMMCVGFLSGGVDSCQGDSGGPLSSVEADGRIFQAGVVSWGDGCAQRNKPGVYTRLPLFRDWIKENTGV
pKi: −log10 of the molar value.
metric: pKi

[[record]]
molecule = "Cc1ccc(S(=O)(=O)N[C@@H](Cc2cccc(C(=N)N)c2)C(=O)N2CCC[C@H](NC(=O)OCc3ccccc3)C2)cc1"
value_observed = 6.00

[[record]]
molecule = "Cc1ccc(S(=O)(=O)N[C@@H](Cc2cccc(C(=N)N)c2)C(=O)N2CCCC(C(=O)NCCc3ccccc3)C2)cc1 (stereo partly drawn) [Compound 25c]"
value_observed = 5.89

[[record]]
molecule = "N=C(N)c1cccc(C[C@H](NS(=O)(=O)c2ccc3ccccc3c2)C(=O)N2CCC[C@@H](NC(=O)OCc3ccccc3)C2)c1 [Compound 25f]"
value_observed = 5.31


###

Quick reference for pKi among some molecules
biological target: hepsin (Homo sapiens); construct: purchased R&D Systems 4776-SE-010; experiment: Fluorescent kinetic enzyme inhibitor assay of hepsin; type: biochemical; conditions: Table 6.1; Fluorogenic Assay; read-out: Hepsin Ki
Sequence (P05981 163-417 limits assumed): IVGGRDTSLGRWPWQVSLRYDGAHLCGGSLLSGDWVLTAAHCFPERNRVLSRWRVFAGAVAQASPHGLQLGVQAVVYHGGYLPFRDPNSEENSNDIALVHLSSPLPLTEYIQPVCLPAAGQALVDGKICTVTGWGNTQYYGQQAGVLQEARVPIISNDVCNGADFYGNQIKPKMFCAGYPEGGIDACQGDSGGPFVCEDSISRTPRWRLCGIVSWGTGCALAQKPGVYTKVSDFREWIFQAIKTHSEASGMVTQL
Sequence (P05981 45-162 partner limits assumed): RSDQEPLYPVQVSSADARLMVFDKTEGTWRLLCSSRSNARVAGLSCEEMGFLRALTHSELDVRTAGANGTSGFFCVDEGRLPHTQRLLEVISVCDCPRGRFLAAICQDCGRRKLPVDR
pKi: −log10 of the molar value. Starred links: 1 amine or outer side, 2 acyl side, 3 side chain; linkers in the order of their positions; H or OH if unused. Non-standard residues stand in square brackets, D forms with d. Residues, ends and D or L forms follow the SMILES beside them. X1 = N=C(N)NCCC[C@H](N[*:1])C(=O)c1nc2ccc(C(=O)[*:2])cc2s1
metric: pKi

[[record]]
molecule = "CC(=O)N[C@@H](CO)C(=O)N[C@@H](CCCCN)C(=O)N[C@@H](CC(C)C)C(=O)N[C@@H](CCCNC(=N)N)C(=O)c1nc2ccc(C(=O)Nc3ccncc3)cc2s1 [Compound 7126]"
target_or_system = "hepsin (Homo sapiens)"
value_observed = 9.85

[[record]]
molecule = "CC(=O)N[C@@H](CO)C(=O)N[C@@H](CCCCN)C(=O)N[C@@H](CC(C)C)C(=O)N[C@@H](CCCNC(=N)N)C(=O)c1nc2ccc(C(=O)N[C@@H](Cc3ccccc3)C(N)=O)cc2s1 [Compound 7125, Ac-SKLR(SEQ ID NO: 10)-Kbt-Phe— NH2] (Ac-SKL[X1]F-NH2)"
target_or_system = "hepsin (Homo sapiens)"
value_observed = 9.85

[[record]]
molecule = "CC(=O)N[C@@H](CO)C(=O)N[C@@H](CCCCN)C(=O)N[C@@H](CC(C)C)C(=O)N[C@@H](CCCNC(=N)N)C(=O)c1nc2ccc(C(=O)N[C@H](C(N)=O)C(C)C)cc2s1 [Compound 7116, Ac-SKLR(SEQ ID NO: 10)-Kbt-Val— NH2] (Ac-SKL[X1]V-NH2)"
target_or_system = "hepsin (Homo sapiens)"
value_observed = 9.72

[[record]]
molecule = "N=C(N)NCCC[C@H](NC(=O)[C@H](Cc1ccccc1)NC(=O)[C@H](N)Cc1c[nH]c2ccccc12)C(=O)c1nc2ccc(C(=O)O)cc2s1 [Compound 1-45A1, H-dWFR-kbt-COOH]"
target_or_system = "hepsin (Homo sapiens)"
value_observed = 8.85


Ref: patent US11130780B2
